# measured.target: cloned human beta-3 adrenergic receptor (Homo sapiens, UniProt P13945)
# Construct: expressed in transfected cells; host or cells: CHO-K1
# Sequence (P13945 whole entry): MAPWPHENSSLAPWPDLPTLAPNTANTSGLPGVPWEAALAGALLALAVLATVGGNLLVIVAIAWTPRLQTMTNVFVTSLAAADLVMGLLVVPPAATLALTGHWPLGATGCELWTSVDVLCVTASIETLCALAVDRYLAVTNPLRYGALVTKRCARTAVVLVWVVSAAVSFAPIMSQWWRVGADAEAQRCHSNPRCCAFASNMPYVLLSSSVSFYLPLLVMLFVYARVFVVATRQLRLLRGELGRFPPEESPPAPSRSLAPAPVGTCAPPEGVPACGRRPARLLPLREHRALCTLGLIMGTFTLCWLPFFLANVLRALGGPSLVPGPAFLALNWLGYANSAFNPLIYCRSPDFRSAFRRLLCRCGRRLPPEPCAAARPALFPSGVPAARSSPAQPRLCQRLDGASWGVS
# method.description: cAMP accumulation (DELFIA cAMP-Eu assay) in CHO-K1 cells expressing the beta-3 adrenergic receptor
# Type: cell-based
# measurement.parameters: CHO-K1; maximum cAMP response; isoproterenol 10^−4 M = 100%, absence of agonists = 0%; read-out: Intrinsic Activity (IA %)
property.label: Emax (%)

| compound | test.value |
| --- | --- |
| COc1ccc(S(=O)(=O)N2CCN(C[C@H](O)COc3ccc(OCc4ccccc4)cc3)CC2)cc1 [Compound 2c] | 48 |
| CC(C)(Oc1ccc(CCNCC(O)c2ccccc2)cc1)C(=O)O (racemic) [Compound 1a] | 68 |
| COc1ccc(S(=O)(=O)N2CCN(C[C@H](O)COc3cccc4ccccc34)CC2)cc1 [Compound 2i] | 43 |

[1] C[C@H](Oc1ccc(CCNC[C@@H](O)c2ccccc2)cc1)C(=O)O [Compound 1e]
[2] COc1ccc(S(=O)(=O)N2CCN(C[C@H](O)COc3cccc([N+](=O)[O-])c3)CC2)cc1 [Compound 2d]
[3] COc1ccc(S(=O)(=O)N2CCN(C[C@H](O)COc3ccccc3)CC2)cc1 [Compound 2a]
[4] C[C@@H](Oc1ccc(CCNC[C@H](O)c2ccccc2)cc1)C(=O)O [Compound 1h]
Arrange items by their Emax values in increasing order. # output: labels, in the requested order
1, 4, 3, 2

====

# measured.target: cloned human beta-3 adrenergic receptor (Homo sapiens, UniProt P13945)
# Construct: expressed in transfected cells; host or cells: CHO-K1
# method.description: cAMP accumulation (DELFIA cAMP-Eu assay) in CHO-K1 cells expressing the beta-3 adrenergic receptor
# Format: cell-based
# measurement.parameters: concentration of ligand producing 50% of maximum cAMP accumulation; CHO-K1 human β3; SEM, n ≧ 3
property.label: EC50 (nM)

| compound | EC50 / nM |
| --- | --- |
| C[C@H](Oc1ccc(CCNC[C@@H](O)c2ccccc2)cc1)C(=O)O [Compound 1e] | 192 |
| COc1ccc(S(=O)(=O)N2CCN(C[C@H](O)COc3ccc(OCc4ccccc4)cc3)CC2)cc1 [Compound 2c] | 8.3 |

[A] CC(C)(Oc1ccc(CCNCC(O)c2ccccc2)cc1)C(=O)O (racemic) [Compound 1a]
[B] C[C@@H](Oc1ccc(CCNC[C@@H](O)c2ccccc2)cc1)C(=O)O [Compound 1g]
Between these two entries, A and B , state which has the higher EC50. In your reply, give the label of the chosen option.
B

====

# measured.target: cloned human beta-3 adrenergic receptor (Homo sapiens, UniProt P13945)
# Construct: expressed in transfected cells; host or cells: CHO-K1
# method.description: cAMP accumulation (DELFIA cAMP-Eu assay) in CHO-K1 cells expressing the beta-3 adrenergic receptor
# Assay type: cell-based
# measurement.parameters: concentration of ligand producing 50% of maximum cAMP accumulation; CHO-K1 human β3; SEM, n ≧ 3
property.label: EC50 (nM)

Check out these entries, answers already filled in.
| compound.structure.string | EC50 [nM] |
| --- | --- |
| C[C@H](NCCc1ccc(O[C@H](C)C(=O)O)cc1)[C@@H](O)c1ccccc1 | 1.97 |
| C[C@H](Oc1ccc(CCNC[C@H](O)c2ccccc2)cc1)C(=O)O | 2.2 |

[A] COc1ccc(S(=O)(=O)N2CCN(C[C@H](O)COc3cccc([N+](=O)[O-])c3)CC2)cc1
[B] COc1ccc(S(=O)(=O)N2CCN(C[C@H](O)COc3ccc(O)cc3)CC2)cc1
Looking only at measured EC50, which entry is lower, A or B ? Indicate your choice by writing its label.
B
(B: 1.97 nM, A: 4.1 nM)

====

# measured.target: cloned human beta-3 adrenergic receptor (Homo sapiens, UniProt P13945)
# Construct: expressed in transfected cells; host or cells: CHO-K1
# method.description: cAMP accumulation (DELFIA cAMP-Eu assay) in CHO-K1 cells expressing the beta-3 adrenergic receptor
# Format: cell-based
# measurement.parameters: concentration of ligand producing 50% of maximum cAMP accumulation; CHO-K1 human β3; SEM, n ≧ 3
property.label: EC50 (nM)

See these solved cases before continuing.
| compound | u | EC50 |
| --- | --- | --- |
| C[C@@H](Oc1ccc(CCN[C@H](C)[C@@H](O)c2ccccc2)cc1)C(=O)O | nM | 211 |
| COc1ccc(S(=O)(=O)N2CCN(C[C@H](O)COc3cccc4[nH]c5ccccc5c34)CC2)cc1 | nM | 3.8 |
| COc1ccc(S(=O)(=O)N2CCN(C[C@H](O)COc3cccc4ccccc34)CC2)cc1 | nM | 5.24 |

[P] CC(Oc1ccc(CCNCC(O)c2ccccc2)cc1)C(=O)O (racemic)
[Q] C[C@@H](Oc1ccc(CCNC[C@H](O)c2ccccc2)cc1)C(=O)O
Select one: P or Q . Criterion: greater recorded EC50. Refer to your chosen entry by its label in the reply.
Q
(Q: 107 nM, P: 3.8 nM)

====

# measured.target: cloned human β2-adrenergic receptor (Homo sapiens)
# Construct: expressed in transfected cells; host or cells: CHO (membranes)
# Sequence (P07550 whole entry): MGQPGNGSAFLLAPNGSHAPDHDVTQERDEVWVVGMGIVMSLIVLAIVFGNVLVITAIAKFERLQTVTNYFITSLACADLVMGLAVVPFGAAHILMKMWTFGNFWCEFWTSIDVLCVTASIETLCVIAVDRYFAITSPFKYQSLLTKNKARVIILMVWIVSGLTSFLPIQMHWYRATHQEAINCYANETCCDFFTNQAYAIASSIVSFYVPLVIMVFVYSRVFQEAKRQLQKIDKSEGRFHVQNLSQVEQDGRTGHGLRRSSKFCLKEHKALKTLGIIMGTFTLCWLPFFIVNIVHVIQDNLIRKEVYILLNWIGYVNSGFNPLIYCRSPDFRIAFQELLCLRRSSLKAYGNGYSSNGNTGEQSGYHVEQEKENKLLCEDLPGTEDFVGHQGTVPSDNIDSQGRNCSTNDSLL
# method.description: [3H]-dihydroalprenolol binding on CHO cell membranes, β2-adrenergic receptor
pKi: −log10 of the molar value.
property.label: pKi

Lab book: pKi of C[C@H](NCCc1ccc(O[C@H](C)C(=O)O)cc1)[C@@H](O)c1ccccc1 [Compound 1k] noted as < 5.30

====

# measured.target: cloned human beta-3 adrenergic receptor (Homo sapiens)
# Construct: expressed in transfected cells; host or cells: CHO-K1
# method.description: cAMP accumulation (DELFIA cAMP-Eu assay) in CHO-K1 cells expressing the beta-3 adrenergic receptor
# Type: cell-based
# measurement.parameters: CHO-K1; maximum cAMP response; isoproterenol 10^−4 M = 100%, absence of agonists = 0%; read-out: Intrinsic Activity (IA %)
property.label: Emax (%)

| compound | Emax (%) |
| --- | --- |
| C[C@@H](Oc1ccc(CCNC[C@@H](O)c2ccccc2)cc1)C(=O)O | -73 |

[1] COc1ccc(S(=O)(=O)N2CCN(C[C@H](O)COc3ccc(O)cc3)CC2)cc1
[2] COc1ccc(S(=O)(=O)N2CCN(C[C@H](O)COc3cccc4[nH]c5ccccc5c34)CC2)cc1
Please choose the item with the lower Emax value from this pair: 1 and 2 Please indicate the selected item by its label.
2

[A] C[C@H](Oc1ccc(CCNC[C@H](O)c2ccccc2)cc1)C(=O)O
[B] CC(C)(Oc1ccc(CCNC[C@H](O)c2ccccc2)cc1)C(=O)O
Looking at recorded values for Emax, does A or B come in lower? Answer with the label corresponding to your selection.
A

====

# measured.target: cloned human beta-3 adrenergic receptor (Homo sapiens)
# Construct: expressed in transfected cells; host or cells: CHO-K1
# method.description: cAMP accumulation (DELFIA cAMP-Eu assay) in CHO-K1 cells expressing the beta-3 adrenergic receptor
# Type: cell-based
# measurement.parameters: statement in the description
# Method: The determination of the beta-3 adrenergic activity of the compounds of general formula (I) was performed by measuring the levels of cAMP in cell lines of CHO-K1 that express the cloned human beta-3 adrenergic receptor. The accumulation of cAMP is directly correlated to the beta-3 adrenergic activity of the compound and is a predictive measure of the effectiveness of the ligand. […]
property.label: type of activity on the beta-3 adrenergic receptor (in words)

| compound.structure.string | measured.target | test.value |
| --- | --- | --- |
| C[C@H](Oc1ccc(CCNC[C@@H](O)c2ccccc2)cc1)C(=O)O | cloned human beta-3 adrenergic receptor (Homo sapiens) | inverse agonist activity |
| C[C@@H](Oc1ccc(CCNC[C@@H](O)c2ccccc2)cc1)C(=O)O | cloned human beta-3 adrenergic receptor (Homo sapiens) | inverse agonist activity |

====

# measured.target: cloned human beta-3 adrenergic receptor (Homo sapiens, UniProt P13945)
# Construct: expressed in transfected cells; host or cells: CHO-K1
# method.description: cAMP accumulation (DELFIA cAMP-Eu assay) in CHO-K1 cells expressing the beta-3 adrenergic receptor
# Format: cell-based
# measurement.parameters: concentration of ligand producing 50% of maximum cAMP accumulation; CHO-K1 human β3; SEM, n ≧ 3
property.label: EC50 (nM)

| compound.structure.string | u | test.value |
| --- | --- | --- |
| CC(C)(Oc1ccc(CCNC[C@@H](O)c2ccccc2)cc1)C(=O)O | nM | 3.4 |
| COc1ccc(S(=O)(=O)N2CCN(C[C@H](O)COc3ccccc3)CC2)cc1 | nM | 5 |
| CC(C)(Oc1ccc(CCNC[C@H](O)c2ccccc2)cc1)C(=O)O | nM | 3.9 |

====

# measured.target: cloned human beta-3 adrenergic receptor (Homo sapiens)
# Construct: expressed in transfected cells; host or cells: CHO-K1
# method.description: cAMP accumulation (DELFIA cAMP-Eu assay) in CHO-K1 cells expressing the beta-3 adrenergic receptor
# Format: cell-based
# measurement.parameters: CHO-K1; maximum cAMP response; isoproterenol 10^−4 M = 100%, absence of agonists = 0%; read-out: Intrinsic Activity (IA %)
property.label: Emax (%)

| compound | Emax, % |
| --- | --- |
| CC(C)(Oc1ccc(CCNC[C@@H](O)c2ccccc2)cc1)C(=O)O | 76 |
| CC(Oc1ccc(CCNCC(O)c2ccccc2)cc1)C(=O)O (racemic) | 65 |
| C[C@H](NCCc1ccc(O[C@H](C)C(=O)O)cc1)[C@@H](O)c1ccccc1 | 53 |
